# subject.of.test: Melanocortin receptor 4 (Homo sapiens) (UniProt P32245)
# Sequence (P32245 whole entry, looked up): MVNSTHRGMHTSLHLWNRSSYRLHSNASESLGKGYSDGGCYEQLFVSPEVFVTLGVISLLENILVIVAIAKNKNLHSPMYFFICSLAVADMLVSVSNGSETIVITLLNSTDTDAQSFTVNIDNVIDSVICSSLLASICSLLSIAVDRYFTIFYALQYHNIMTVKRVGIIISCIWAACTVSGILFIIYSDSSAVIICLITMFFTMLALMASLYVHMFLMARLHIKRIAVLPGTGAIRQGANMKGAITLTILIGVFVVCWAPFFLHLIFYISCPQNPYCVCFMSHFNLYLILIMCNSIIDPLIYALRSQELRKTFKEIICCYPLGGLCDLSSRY
# assay.info: activators of MC4R beta-arrestin recruitment – cell-based, luminescence, agonist arm of biased-ligand search, primary screen (AID 540308)
# study.conditions: U2OS MC4R beta-arrestin complementation, at 8.9 µM, percent of melanotan II response, DMSO zero
About 3,500 (0.97%) of roughly 360,000 compounds were called active.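 Rule for the calls: active = activation above a per-plate cutoff, the mean activation of sample wells on that plate plus 3 SD (cut at about 8% in these data); inactive = the rest.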 The entries come from a sample that favours actives as a whole.
Outcomes: active, inactive

compound | subject.of.test | answer.label
Cc1cc2c(=O)n(C)c(SCC(=O)c3cc4ccccc4o3)nc2s1 | Melanocortin receptor 4 (Homo sapiens) (UniProt P32245) | inactive
CCc1ccc(OC2(C)CCN(CCOc3ccc(C)cc3)C2)cc1 (configuration not stated) | Melanocortin receptor 4 (Homo sapiens) (UniProt P32245) | inactive
COc1ccccc1N1CCN(C(=O)c2cn(-c3ccccc3)nc2-c2cccnc2)CC1 | Melanocortin receptor 4 (Homo sapiens) (UniProt P32245) | inactive
CCN(CC)C(=O)C1CCCN(Cc2cccc(Cl)c2)C1 (configuration not stated) | Melanocortin receptor 4 (Homo sapiens) (UniProt P32245) | inactive
COc1cccc(NC(=S)NC(=O)c2c(Cl)c(C)nn2C)c1 | Melanocortin receptor 4 (Homo sapiens) (UniProt P32245) | active
Cc1ccc(Nc2nnc(SCC(=O)c3cc4ccccc4o3)s2)cc1C | Melanocortin receptor 4 (Homo sapiens) (UniProt P32245) | active
CC1(C(=O)NS(=O)(=O)c2cccc(OC(F)F)c2)CCN1C(=O)COc1ccc(Cl)cc1 (configuration not stated) | Melanocortin receptor 4 (Homo sapiens) (UniProt P32245) | inactive
CCCCCC(=O)N1C[C@H](O)[C@@H](n2cc(COC(=O)c3ccccc3)nn2)C[C@@H]1c1ccc(C)cc1 | Melanocortin receptor 4 (Homo sapiens) (UniProt P32245) | inactive
CCCC(=O)N1CCC1(C)C(=O)NCc1ccc(SC)cc1 (configuration not stated) | Melanocortin receptor 4 (Homo sapiens) (UniProt P32245) | inactive
Cn1cc(S(=O)(=O)NC(c2ccccc2)c2ccccc2)c(=O)n(C)c1=O | Melanocortin receptor 4 (Homo sapiens) (UniProt P32245) | inactive
Cc1ccc(NC(=O)c2sc3nc(N)c(C#N)cc3c2N)cc1 | Melanocortin receptor 4 (Homo sapiens) (UniProt P32245) | inactive
COc1ccc(O)c(/C=N/N=C/c2cccc([N+](=O)[O-])c2)c1 | Melanocortin receptor 4 (Homo sapiens) (UniProt P32245) | inactive
CC(=O)Nc1ccc(NC(=O)c2sc3nc4c(c(-c5ccc(C)cc5)c3c2N)CCC4)cc1 | Melanocortin receptor 4 (Homo sapiens) (UniProt P32245) | active
O=C(c1cc(-c2ccc(O)cc2)on1)N1CCOCC1 | Melanocortin receptor 4 (Homo sapiens) (UniProt P32245) | inactive
Cn1c(SCC(=O)Nc2cccc(NC(=O)c3cccs3)c2)nnc1-c1ccncc1 | Melanocortin receptor 4 (Homo sapiens) (UniProt P32245) | inactive
COc1ccc(NC(=O)CN(C)C(=O)c2ccc(COc3ccccc3)o2)cc1 | Melanocortin receptor 4 (Homo sapiens) (UniProt P32245) | inactive
CCNC(=O)C1CCCN(C(=O)c2ccc(OC)cc2OC)CC1 (configuration not stated) | Melanocortin receptor 4 (Homo sapiens) (UniProt P32245) | inactive
CC(=O)c1ccc(NC(=O)c2sc3nc4n(c(=O)c3c2C)CCCCC4)cc1 | Melanocortin receptor 4 (Homo sapiens) (UniProt P32245) | inactive
NC(=O)C1CCN(C(=O)c2cn(-c3ccccc3)nc2-c2cccnc2)CC1 | Melanocortin receptor 4 (Homo sapiens) (UniProt P32245) | active
COc1ccc(CCCNC(=O)C2Cc3c(-c4cccc(C(N)=O)c4)ccnc3O2)cc1 (configuration not stated) | Melanocortin receptor 4 (Homo sapiens) (UniProt P32245) | inactive
C#Cc1ccc(NC(=O)C2(C)CCN2C(=O)Cc2ccc(-c3ccccc3)cc2)cc1 (configuration not stated) | Melanocortin receptor 4 (Homo sapiens) (UniProt P32245) | inactive
COCCN(CCOC)S(=O)(=O)c1ccc(C(=O)Nc2nc3c(s2)CCc2ccccc2-3)cc1 | Melanocortin receptor 4 (Homo sapiens) (UniProt P32245) | active
CN(Cc1ccccc1)C(=O)c1ccc(COc2ccccc2)cc1 | Melanocortin receptor 4 (Homo sapiens) (UniProt P32245) | inactive
Cc1nn(C)c(C(=O)NNC(=S)NC2CCCCC2)c1Cl | Melanocortin receptor 4 (Homo sapiens) (UniProt P32245) | inactive
CCCS(=O)(=O)NC(=O)C1(C)CCCN(C(=O)c2cccs2)C1 (configuration not stated) | Melanocortin receptor 4 (Homo sapiens) (UniProt P32245) | inactive
COc1ccc(C(C)(O)c2nc(-c3cc(F)cc(F)c3)cs2)cc1 (configuration not stated) | Melanocortin receptor 4 (Homo sapiens) (UniProt P32245) | inactive
COc1ccc(OC)c(NC(=O)C2(C)CCN2C(=O)Cc2ccccc2)c1 (configuration not stated) | Melanocortin receptor 4 (Homo sapiens) (UniProt P32245) | inactive
COc1ccc(CNC(=O)c2ccc(-c3cccnc3)c3ccoc23)cc1OC | Melanocortin receptor 4 (Homo sapiens) (UniProt P32245) | inactive
CC1(C(=O)O)CCN1C(=O)/C=C/c1ccccc1 (configuration not stated) | Melanocortin receptor 4 (Homo sapiens) (UniProt P32245) | inactive
Cc1ccc(-n2nc(C)c(/C=N/NC(=O)c3cccs3)c2Cl)cc1 | Melanocortin receptor 4 (Homo sapiens) (UniProt P32245) | active
CCc1nc2ccc(C(=O)N3CCN(S(=O)(=O)CC)CC3)cn2c1N(C=O)CCC(C)C | Melanocortin receptor 4 (Homo sapiens) (UniProt P32245) | inactive
COc1cccc(OC)c1C(=O)NC(=S)Nc1ccc(N2CCOCC2)c(Cl)c1 | Melanocortin receptor 4 (Homo sapiens) (UniProt P32245) | inactive
Cc1nc(-c2nnc(SCC(=O)Nc3cc(C(F)(F)F)cc(C(F)(F)F)c3)n2C)cs1 | Melanocortin receptor 4 (Homo sapiens) (UniProt P32245) | active
O=[N+]([O-])c1cccc(C=NN=Cc2ccccc2O)c1 | Melanocortin receptor 4 (Homo sapiens) (UniProt P32245) | active
COc1cc(CNc2ncnc3c2ncn3[C@H]2CN(Cc3cccs3)C[C@@H](CO)O2)cc(OC)c1OC | Melanocortin receptor 4 (Homo sapiens) (UniProt P32245) | inactive
O=C(NCCCN1CCOCC1)c1cc(-c2cccc(O)c2)on1 | Melanocortin receptor 4 (Homo sapiens) (UniProt P32245) | inactive
COc1cc(C2C(C(=O)Nc3ccc(F)cc3)=C(C)Nc3nc(CCCO)nn32)cc(OC)c1OC (configuration not stated) | Melanocortin receptor 4 (Homo sapiens) (UniProt P32245) | inactive

Cited source for all entries: PubChem BioAssay AID540308
